- system-name: Integrin alpha-V/beta-3 (Homo sapiens, UniProt P05106+P06756)
- Sequence (P05106 27-788 limits assumed): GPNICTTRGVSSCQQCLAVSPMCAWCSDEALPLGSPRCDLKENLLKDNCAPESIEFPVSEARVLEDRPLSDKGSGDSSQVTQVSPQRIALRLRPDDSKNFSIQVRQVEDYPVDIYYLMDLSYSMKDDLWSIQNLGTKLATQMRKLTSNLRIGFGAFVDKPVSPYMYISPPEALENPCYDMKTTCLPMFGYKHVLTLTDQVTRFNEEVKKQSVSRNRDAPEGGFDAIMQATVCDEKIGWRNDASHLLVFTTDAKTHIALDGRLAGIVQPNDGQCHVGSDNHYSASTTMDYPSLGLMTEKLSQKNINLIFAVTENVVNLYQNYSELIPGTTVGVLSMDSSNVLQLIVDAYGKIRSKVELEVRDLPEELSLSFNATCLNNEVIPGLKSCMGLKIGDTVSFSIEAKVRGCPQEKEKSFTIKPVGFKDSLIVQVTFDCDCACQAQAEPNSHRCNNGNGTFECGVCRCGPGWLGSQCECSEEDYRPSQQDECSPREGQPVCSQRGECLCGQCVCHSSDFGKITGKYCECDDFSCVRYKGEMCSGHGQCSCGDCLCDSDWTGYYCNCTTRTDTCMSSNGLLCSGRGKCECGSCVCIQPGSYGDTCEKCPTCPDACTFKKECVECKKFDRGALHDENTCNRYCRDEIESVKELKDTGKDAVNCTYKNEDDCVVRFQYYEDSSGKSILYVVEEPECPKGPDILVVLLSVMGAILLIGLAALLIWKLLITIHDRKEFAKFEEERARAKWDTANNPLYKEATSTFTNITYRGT
- Sequence (P06756 31-889 limits assumed): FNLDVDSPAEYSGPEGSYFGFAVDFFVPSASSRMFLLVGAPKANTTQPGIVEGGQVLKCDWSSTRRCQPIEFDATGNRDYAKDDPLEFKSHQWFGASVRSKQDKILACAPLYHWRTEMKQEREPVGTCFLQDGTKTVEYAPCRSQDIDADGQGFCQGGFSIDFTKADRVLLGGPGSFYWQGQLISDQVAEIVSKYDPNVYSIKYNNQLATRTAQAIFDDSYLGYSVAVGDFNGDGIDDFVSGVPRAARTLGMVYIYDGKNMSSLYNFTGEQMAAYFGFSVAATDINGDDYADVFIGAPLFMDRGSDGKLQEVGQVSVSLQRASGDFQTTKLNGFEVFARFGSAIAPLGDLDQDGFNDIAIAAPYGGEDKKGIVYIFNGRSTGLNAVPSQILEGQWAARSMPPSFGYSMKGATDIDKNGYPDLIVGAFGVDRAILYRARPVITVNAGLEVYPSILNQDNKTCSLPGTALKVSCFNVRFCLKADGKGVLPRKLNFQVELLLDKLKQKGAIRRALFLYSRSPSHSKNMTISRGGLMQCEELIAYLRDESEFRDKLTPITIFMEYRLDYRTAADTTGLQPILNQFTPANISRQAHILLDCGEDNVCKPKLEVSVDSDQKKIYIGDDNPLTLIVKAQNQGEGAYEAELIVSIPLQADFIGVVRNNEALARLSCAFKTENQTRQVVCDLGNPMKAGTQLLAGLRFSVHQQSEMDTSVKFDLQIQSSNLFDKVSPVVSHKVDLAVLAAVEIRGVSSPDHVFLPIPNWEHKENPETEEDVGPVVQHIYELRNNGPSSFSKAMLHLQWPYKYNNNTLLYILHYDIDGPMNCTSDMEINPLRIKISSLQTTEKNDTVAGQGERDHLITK
- Sequence (P06756 891-1048 limits assumed): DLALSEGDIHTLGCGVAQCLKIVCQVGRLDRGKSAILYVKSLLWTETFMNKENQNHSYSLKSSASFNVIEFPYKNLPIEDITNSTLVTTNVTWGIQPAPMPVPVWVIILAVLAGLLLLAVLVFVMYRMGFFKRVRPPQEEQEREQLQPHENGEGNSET
- protocol: Inhibitory activity against vitronectin receptor (alpha V beta 3)
What IC50 was measured for each of the following?
Note: unit nM is implicit; provide only the numeric part.

Query: Any idea what IC50 was measured for N=C(N)Nc1cccc(C(=O)NNC(=O)CC(CC(=O)O)c2cc(Cl)cc(Cl)c2)c1 (stereo not drawn) ?
Response: 2

Query: Any idea what IC50 was measured for N=C(N)Nc1cccc(C(=O)NNC(=O)CC(CC(=O)O)c2ccc(Cl)cc2)c1 (stereo not drawn) ?
Response: 2

Query: Any idea what IC50 was measured for N=C(N)Nc1cccc(C(=O)NNC(=O)CC(CC(=O)O)c2ccc(Br)cc2)c1 (stereo not drawn) ?
Response: 2

All figures here come from ChEMBL document CHEMBL1134450.
